Test system: Bacillus subtilis
Assay: cleaved RNA product abundance (RNA/gDNA barcode ratio) relative to median wild-type variant (ratio to wild type); higher = more accumulation of the downstream cleavage product
Details: experiment (reporter, strain, medium): exp 8a: truncated aprE reporter, strain BJT201 with 2% xylose (RNase J1 expressed); cleavage site: glnRA (positions -5 to +31 mutated)

| RESIDUE CODES | cleaved RNA product abundance |
| --- | --- |
| CGACATGTCCCGCTTCTTTCATTAATCCGTTAGCAACTGTTTTGCTATATACATTTAGGTTTTAAGAGGAGGAAT | 0.86 |
| CGACATGTCCCGCTTCTTTCATTAATCCGTTAGCAACTGTCTTGCTATATACATTTACCTTTTAAGAGGAGGAAT | 0.849 |
| CGACATGTCCCGCTTCTTTCATTAATCCGTTAGCATCTCTTTTGCTATATACATTTACCTTTTAAGAGGAGGAAT | 0.59 |
| CGACATGTCCCGCTTCTTTCATTAATTCGTTAGCAACTGTTTTGCTATATTCATTTACCTTTTAAGAGGAGGAAT | 0.627 |

* * *

Test system: Bacillus subtilis
Assay: cleaved RNA product abundance (RNA/gDNA barcode ratio) relative to median wild-type variant (ratio to wild type); higher = more accumulation of the downstream cleavage product
Settings: experiment (reporter, strain, medium): exp 4a: truncated aprE reporter, strain BJT201 with 2% xylose (RNase J1 expressed); cleavage site: cggR-gapA (positions -7 to +36 mutated)

| RESIDUE CODES | EXPERIMENTAL SYSTEM | cleaved RNA product abundance |
| --- | --- | --- |
| ACAGACGAAGGAGCCGCAAAGAAGTTATTAAGAGATGAATAATCCCTCAATATAACTATCTCTCACTTATTTAAA | Bacillus subtilis | 0.0935 |
| ACAGACGAAGGAGCCGCAAAGAAGTTATTAAGGCATGAATAATCCCTCAAAATAAATATCTCTCACTTATTTAAA | Bacillus subtilis | 0.141 |
| ACAGACGAAGGAGCCGCAAAGAAATTATTAAGGCATGAATAATCCCTCAATATAAATATCTCTCACTTATTTAAA | Bacillus subtilis | 0.122 |
| ACAGACGAAGGAGCCGCAAAGAAGTTATTAAGGGATGAAGAATACCTCAATATAAATATCTCTCACTTATTTAAA | Bacillus subtilis | 0.106 |
| ACAGACGAAGGAGCCGCAAAGAAGTTCTTAAGGGATGAATAATCCATCAATATAAATATCTCTCACTTATTTAAA | Bacillus subtilis | 0.199 |
| ACAGACGAAGGAGCCGCAAAGTAGTTATTAAGGGATGAATAATCCCTCCATATAAATATCTCTCACTTATTTAAA | Bacillus subtilis | 0.487 |
| ACAGACGAAGGAGCCGCAAAGAAGTTATTAAGAGATAAATAATCCCTCAATATAAATATCTCTCACTTATTTAAA | Bacillus subtilis | 0.0932 |

* * *

Entries and their cleaved RNA product abundance values follow.
Test system: Bacillus subtilis
Test: cleaved RNA product abundance (RNA/gDNA barcode ratio) relative to median wild-type variant (ratio to wild type); higher = more accumulation of the downstream cleavage product
Conditions: experiment (reporter, strain, medium): exp 4a: truncated aprE reporter, strain BJT201 with 2% xylose (RNase J1 expressed); cleavage site: cggR-gapA (positions -7 to +36 mutated)

| RESIDUE CODES | cleaved RNA product abundance |
| --- | --- |
| ACAGACGAAGGAGCCGCAAAGATGTAATTAAGGGATGAATAATCCCTCAATATAAATATCTCTCACTTATTTAAA | 0.427 |
| ACAGACGAAGGAGCCGCAAAGAAGTTATTAAGGGATGAATCATCCCTTAATATAAATATCTCTCACTTATTTAAA | 0.46 |
| ACAGACGAAGGAGCCGCAAAGAAGTTATTAAGGGATAAATAATCCGTCAATATAAATATCTCTCACTTATTTAAA | 0.166 |
| ACAGACGAAGGAGCCGCAAAGAAGTTATTAAGGGATGAATAATCTCTCAATATAAATATTTCTCACTTATTTAAA | 0.948 |
| ACAGACGAAGGAGCCGCAAAGAAGCTATTAAGGGATGAATAATCCCTTAATATAAATATCTCTCACTTATTTAAA | 0.827 |
| ACAGACGAAGGAGCCGCAAAGAAGTTATTTATGGATGAATAATCCCTCAATATAAATATCTCTCACTTATTTAAA | 0.165 |
| ACAGACGAAGGAGCCGCAAATAAGTTAGTAAGGGATGAATAATCCCTCAATATAAATATCTCTCACTTATTTAAA | 0.549 |

Attribution: the supplement of paper PMC11780869
